- Tested on: IL-5 production
- Assay Method Text: In vitro inhibition of IL-5 production in human blood (phytohemagglutinin-stimulated whole blood, ELISA);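 also: values marked with an asterisk were tested at 10 µM and unmarked values at 1 µM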
- Assay type: cell-based
- Stated Conditions: test dose 1×10^−6 M, 48 hours
Lab note: compare % inh. (percentage inhibition of IL-5 production) against 90%. Equal or greater, write MET. Smaller, write NOT MET.

>  <Compound>
O=c1cnn(-c2cc(Cl)c(C(c3ccc(Cl)cc3)c3nnc(-c4ccccc4)o3)c(Cl)c2)c(=O)[nH]1 (racemic) [Compound 127]

>  <Label>
MET

$$$$

Would you say O=c1cnn(-c2ccc(C(c3ccc(Cl)cc3)c3noc(-c4ccccc4)n3)c(Cl)c2)c(=O)[nH]1 (racemic) shows % inh. (percentage inhibition of IL-5 production) at minimum 90%?
NOT MET

Would you say O=c1cnn(-c2cc(Cl)c(C(c3ccc(Cl)cc3)c3nc(-c4cccc(F)c4)cs3)c(Cl)c2)c(=O)[nH]1 (single isomer, unassigned) [Comp 319] shows % inh. (percentage inhibition of IL-5 production) at minimum 90%?
NOT MET

Would you say COc1cc(-n2ncc(=O)[nH]c2=O)ccc1C(c1ccc(Cl)cc1)c1sc(C)nc1-c1ccccc1 (racemic) shows % inh. (percentage inhibition of IL-5 production) at minimum 90%?
NOT MET

Would you say Nc1ccc(-c2nnc(C(c3ccc(Cl)cc3)c3c(Cl)cc(-n4ncc(=O)[nH]c4=O)cc3Cl)o2)cc1 (racemic) shows % inh. (percentage inhibition of IL-5 production) at minimum 90%?
NOT MET
